# ASSAYED_TARGET: Human immunodeficiency virus type 1 protease (Human immunodeficiency virus 1)
# PROTOCOL: The compound was evaluated for irreversible inhibition of HIV-1 protease
PROPERTY_NAME: K inact
For clarity, give the value followed by its unit.

Q: Missing value: K inact, Human immunodeficiency virus type 1 protease (Human immunodeficiency virus 1), entry O=[N+]([O-])c1ccc(OCC2CO2)cc1 (centres undefined) . Fill in?
Result: 11000 µM

Q: Record: CC(C)C[C@@H]1O[C@@H]1[C@H](Cc1ccccc1)NC(=O)[C@H](C)NC(=O)[C@H](Cc1ccccc1)NC(=O)OCc1ccccc1
Result: 20 µM

Q: Record: CC(C)C(NC(=O)OCc1ccccc1)C(=O)N[C@@H](Cc1ccccc1)[C@@H]1O[C@@H]1[C@H](Cc1ccccc1)NC(=O)C(NC(=O)OCc1ccccc1)C(C)C (some centres undefined)
Result: 0.075 µM

Q: Record: O=C(OCC1c2ccccc2-c2ccccc21)N1CCC2OC2C1 (centres undefined)
Result: 65 µM
